# test_system: T1, Rb^P R741S (human, UniProt P06400 380-788, R741S)
# T1 construct: also called variant 70
# T1 sequence (looked up): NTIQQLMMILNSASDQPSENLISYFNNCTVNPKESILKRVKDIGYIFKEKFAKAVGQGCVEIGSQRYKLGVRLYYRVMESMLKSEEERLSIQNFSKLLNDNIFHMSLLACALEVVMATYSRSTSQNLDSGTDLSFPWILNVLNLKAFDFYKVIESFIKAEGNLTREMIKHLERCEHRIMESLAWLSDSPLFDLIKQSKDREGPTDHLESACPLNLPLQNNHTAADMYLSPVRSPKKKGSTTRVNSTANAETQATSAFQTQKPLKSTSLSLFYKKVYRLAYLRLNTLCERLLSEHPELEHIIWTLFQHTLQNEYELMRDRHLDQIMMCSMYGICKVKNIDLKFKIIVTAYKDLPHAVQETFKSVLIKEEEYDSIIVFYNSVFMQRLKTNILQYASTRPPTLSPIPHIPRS
# assay_overview: fluorescence polarisation; 25 °C; unlabeled Rb^P titrated against 1.5 nM TMR-E2F1^TD or 7.5 nM TMR-E7^LxCxE; 25 mM Tris pH 8.0, 200 mM NaCl, 1 mM DTT, 0.1% Tween-20; 2 min incubation; quadratic fit; apparent Kd for the variants, Kd for WT
# study_conditions: both partners purified
No end group written: not given here. TMR = tetramethyl rhodamine dye
Exercise: state measured Kd for each of the binders provided.
// return numeric value only (unit: nM, not printed)

Asked: Quick one: Kd of {TMR}-GEGIRDLFDCDFGDLTPLD (also called E2F^TD; source: synthetic peptide, bought: GenScript) [TMR-E2F1^TD, peptide of the E2F1 transactivation domain] ?
Given back: 32

Asked: What value of measured Kd is listed for DLYCYEQLN (also: TMR label, position not given here, source: synthetic peptide, bought: GenScript) [TMR-E7^LxCxE, LxCxE peptide of the E7 oncoprotein from HPV] ?
Given back: 16

Reference for the values: paper PMC11931385
